For each of the variants below, state its one-hybrid fitness for binding NBS DNA.
B1: Caulobacter ParB omega fusion; a variant is named by its letters at X, in order, B8GW30 (parent)
chain: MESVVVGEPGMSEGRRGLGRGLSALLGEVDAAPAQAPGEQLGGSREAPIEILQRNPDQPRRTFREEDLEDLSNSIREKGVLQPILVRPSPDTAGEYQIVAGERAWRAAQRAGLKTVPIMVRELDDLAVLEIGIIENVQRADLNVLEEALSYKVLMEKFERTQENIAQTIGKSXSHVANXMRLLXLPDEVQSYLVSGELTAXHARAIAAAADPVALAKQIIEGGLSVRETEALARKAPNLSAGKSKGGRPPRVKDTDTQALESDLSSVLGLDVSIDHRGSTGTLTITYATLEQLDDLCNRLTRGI

- Variants of: B1
- measurement_description: one-hybrid fitness for binding NBS DNA (the Noc-binding site; scaled: cognate 1, non-cognate 0); higher = stronger binding
- experimental_setup: with NBS DNA site
The full ranking holds about 81,000 sequences; the median of “one-hybrid fitness for binding NBS DNA” is about -0.1, and the highest 2% start at about 0.36. The sample as a whole holds a higher share of the highest values than the screen did.

Data request: Which one-hybrid fitness for binding NBS DNA value belongs to QYMR ?
Data returned: 0.482

Data request: Entry under review: FRQA . Reported one-hybrid fitness for binding NBS DNA?
Data returned: ≤ 0.2

Data request: Suppose we examine the variant MMPN ; what one-hybrid fitness for binding NBS DNA value has been reported?
Data returned: ≤ 0.2

Data request: Form field: reported one-hybrid fitness for binding NBS DNA of QSIQ
Data returned: ≤ 0.2

Data request: For the variant AQGA , what one-hybrid fitness for binding NBS DNA is on record?
Data returned: ≤ 0.2

Data request: I'd like to know its one-hybrid fitness for binding NBS DNA. The variant in question is QRQH
Data returned: 0.544

Data request: So what's the measured one-hybrid fitness for binding NBS DNA for this one? PCDK
Data returned: ≤ 0.2

Data request: Please look up its one-hybrid fitness for binding NBS DNA: YTCL
Data returned: ≤ 0.2

Data request: Look up one-hybrid fitness for binding NBS DNA: QYHG
Data returned: ≤ 0.2

Data request: // lookup one-hybrid fitness for binding NBS DNA for YQPD
Data returned: ≤ 0.2

Data request: Would you kindly share the measured one-hybrid fitness for binding NBS DNA for RWLC ?
Data returned: ≤ 0.2

Data request: Recorded one-hybrid fitness for binding NBS DNA for QRQF , please?
Data returned: 0.323

Data request: Given the entry YTKY , report its measured one-hybrid fitness for binding NBS DNA.
Data returned: ≤ 0.2

Data request: Bench note: what one-hybrid fitness for binding NBS DNA did QYQR show?
Data returned: 0.493

Data request: I'd like to know its one-hybrid fitness for binding NBS DNA. The variant in question is SVFR
Data returned: ≤ 0.2

Data request: # one-hybrid fitness for binding NBS DNA lookup, item LFHV
Data returned: ≤ 0.2

Data request: # one-hybrid fitness for binding NBS DNA lookup, item ANDS
Data returned: ≤ 0.2

Data request: Name the recorded one-hybrid fitness for binding NBS DNA for TIRS .
Data returned: ≤ 0.2

Data request: Form field: reported one-hybrid fitness for binding NBS DNA of AFLS
Data returned: ≤ 0.2

Data request: Report one-hybrid fitness for binding NBS DNA for QYQC please.
Data returned: ≤ 0.2

Data request: Fill in the blank: the reported one-hybrid fitness for binding NBS DNA of WCYR is ____.
Data returned: ≤ 0.2

Data request: State the recorded one-hybrid fitness for binding NBS DNA for this entry: QYMF
Data returned: ≤ 0.2

Data request: Need one-hybrid fitness for binding NBS DNA of GLRT , thanks.
Data returned: ≤ 0.2

Data request: Need one-hybrid fitness for binding NBS DNA of LAIW , thanks.
Data returned: ≤ 0.2

Data request: Looking for the measured one-hybrid fitness for binding NBS DNA of DPGG , can you help?
Data returned: ≤ 0.2

Data request: Item GWLG has what recorded one-hybrid fitness for binding NBS DNA?
Data returned: ≤ 0.2

Data request: Consider the variant HPYT and give its measured one-hybrid fitness for binding NBS DNA.
Data returned: ≤ 0.2

Data request: Any idea what its one-hybrid fitness for binding NBS DNA is? The variant is WCGS
Data returned: ≤ 0.2

Data request: I would be grateful if you could share the reported one-hybrid fitness for binding NBS DNA for QHQH .
Data returned: ≤ 0.2

Data request: Consider the variant shown here: QYHR What is its recorded one-hybrid fitness for binding NBS DNA?
Data returned: 0.541

Data request: If you can, please state the reported one-hybrid fitness for binding NBS DNA value of QYQK .
Data returned: ≤ 0.2

Data request: Would you kindly share the measured one-hybrid fitness for binding NBS DNA for QYHD ?
Data returned: ≤ 0.2

Data request: I would be grateful if you could share the reported one-hybrid fitness for binding NBS DNA for QREQ .
Data returned: ≤ 0.2

Data request: Tell me the measured one-hybrid fitness for binding NBS DNA of AINC , please.
Data returned: ≤ 0.2

Data request: Query (variant): SQRN ; field requested: one-hybrid fitness for binding NBS DNA
Data returned: ≤ 0.2

Data request: // query one-hybrid fitness for binding NBS DNA value for entry LWNA
Data returned: ≤ 0.2

Data request: Returns the measured one-hybrid fitness for binding NBS DNA for the input variant. Input: QCQH
Data returned: 0.222

Data request: one-hybrid fitness for binding NBS DNA for WQSY ?
Data returned: ≤ 0.2

Data request: // one-hybrid fitness for binding NBS DNA lookup, key: MNVG
Data returned: ≤ 0.2
